# experimental-system: PYL11 (Arabidopsis thaliana)
# Construct: made in house; host or cells: E. coli BL21[DE3]pLysS
# Sequence (Q9FJ50 whole entry): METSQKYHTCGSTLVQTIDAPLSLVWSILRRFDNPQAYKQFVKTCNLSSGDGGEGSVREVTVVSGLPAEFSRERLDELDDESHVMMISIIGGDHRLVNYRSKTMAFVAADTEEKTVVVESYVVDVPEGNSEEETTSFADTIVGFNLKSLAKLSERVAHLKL
# Sequence (Q9CAJ0 23-511 partner): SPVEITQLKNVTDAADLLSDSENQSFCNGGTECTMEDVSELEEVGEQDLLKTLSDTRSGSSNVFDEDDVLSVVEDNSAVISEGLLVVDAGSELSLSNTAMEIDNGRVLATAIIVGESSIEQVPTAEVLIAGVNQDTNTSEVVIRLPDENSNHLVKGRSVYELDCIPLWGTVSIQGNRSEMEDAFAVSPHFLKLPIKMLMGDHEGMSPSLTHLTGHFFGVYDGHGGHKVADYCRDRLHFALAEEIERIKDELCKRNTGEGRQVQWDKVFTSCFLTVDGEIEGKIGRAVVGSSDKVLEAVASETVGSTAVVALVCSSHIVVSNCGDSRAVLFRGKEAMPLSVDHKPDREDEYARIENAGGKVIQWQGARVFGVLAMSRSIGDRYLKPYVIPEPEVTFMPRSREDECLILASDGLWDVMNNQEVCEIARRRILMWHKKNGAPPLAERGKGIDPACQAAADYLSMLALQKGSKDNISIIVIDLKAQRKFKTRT
# assay-overview: receptor-mediated PP2C (HAB1) inhibition in vitro assay
# Type: biochemical
# test-context: 50 uM of the test compound
endpoint: remaining activity at 50 µM (%)
Give just the number in %; leave the unit off.

Solved cases (5 shown):
- CC1CCC(C(=O)NS(=O)(=O)Cc2ccc(C#N)cc2)(c2ccc(F)cc2)CC1 (stereo not drawn): 14.7
- N#Cc1ccc(CS(=O)(=O)NC(=O)C(c2ccccc2)c2ccccc2)cc1: 43.2
- N#Cc1ccc(CS(=O)(=O)NC(=O)C2(c3ccsc3)CCCCC2)cc1: 9.9
- CC1(C)CCC(C(=O)NS(=O)(=O)Cc2ccc(C#N)cc2)(c2ccc(F)cc2)CC1: 16.2
- O=C(NS(=O)(=O)Cc1ccc([N+](=O)[O-])cc1)C1(c2ccccc2)CCCCC1: 92.6

Sample `N#Cc1ccc(CS(=O)(=O)NC(=O)C(C2CCCCC2)C2CCCCC2)cc1` ; remaining activity at 50 µM observed: 26.9

Sample `O=C(NS(=O)(=O)Cc1ccc(F)cc1)C1(c2ccccc2)CCCCC1` ; remaining activity at 50 µM observed: 97.5

Sample `N#Cc1ccc(CS(=O)(=O)NC(=O)C2(c3ccsc3)CCCCC2)cc1Br` ; remaining activity at 50 µM observed: 7.8

Sample `CC(C)COC(=O)NS(=O)(=O)Cc1ccc(C#N)cc1` ; remaining activity at 50 µM observed: 42.1

Sample `N#Cc1ccc(CS(=O)(=O)NC(=O)C2(c3cccs3)CCCCC2)cc1` ; remaining activity at 50 µM observed: 9.8

Sample `N#Cc1ccc(CS(=O)(=O)NC(=O)C2(c3ccccc3)CCCCC2)cc1` ; remaining activity at 50 µM observed: 13.5

Sample `N#Cc1ccc(CS(=O)(=O)NC(=O)C(c2ccc(F)cc2)c2ccc(F)cc2)cc1` ; remaining activity at 50 µM observed: 37.4

* * *

# experimental-system: PYL8 (Arabidopsis thaliana, UniProt Q9FGM1)
# Construct: 6X-His; made in house; host or cells: E. coli BL21[DE3]pLysS
# Sequence (Q9FGM1 whole entry, one chain of several): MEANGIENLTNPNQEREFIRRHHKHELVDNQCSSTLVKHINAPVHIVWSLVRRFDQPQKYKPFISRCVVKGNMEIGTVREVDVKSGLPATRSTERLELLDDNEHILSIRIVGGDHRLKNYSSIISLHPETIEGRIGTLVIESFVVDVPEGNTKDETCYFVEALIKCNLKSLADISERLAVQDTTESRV
# assay-overview: receptor-mediated PP2C (HAB1) inhibition in vitro assay
# Format: biochemical
# test-context: Table VII; read-out: PP2C Dose Curves PYL8 (IC50)
# Y = IC50 below 10 µM (exclusive); N = IC50 at/above 10 µM

Would you please look over these solved cases?
• N#Cc1ccc(CS(=O)(=O)NC(=O)C2(c3cccc(C#N)c3)CC2)cc1 = Y
• CC(C)(C(=O)NS(=O)(=O)Cc1ccc(C#N)cc1)c1ccc(Cl)c(Cl)c1 = N
• N#Cc1ccc(CS(=O)(=O)NC(=O)C2(c3ccc(F)cc3)CC2)cc1 = N
• CC(C)(C(=O)NS(=O)(=O)Cc1ccc(C#N)cc1)c1cccc(C#N)c1 = N
• N#Cc1ccc(CS(=O)(=O)NC(=O)C2(c3cccc(F)c3)CCCC2)cc1 = N
• CC(C)(C(=O)NS(=O)(=O)Cc1ccc(C#N)cc1)c1ccc(Cl)cc1 = N

## Task Check if IC50 falls below 10 µM for `N#Cc1ccc(CS(=O)(=O)NC(=O)C2(c3ccc(Br)cc3)CC2)cc1` .
## Result N

## Task Check if IC50 falls below 10 µM for `N#Cc1ccc(CS(=O)(=O)NC(=O)C2(c3ccc(F)cc3)CCCCC2)cc1` .
## Result Y

## Task Check if IC50 falls below 10 µM for `N#Cc1ccc(CS(=O)(=O)NC(=O)C2(c3ccc(F)cc3)CCC2)cc1` .
## Result Y

## Task Check if IC50 falls below 10 µM for `COc1ccccc1C1(C(=O)NS(=O)(=O)Cc2ccc(C#N)cc2)CCC1` .
## Result N

## Task Check if IC50 falls below 10 µM for `N#Cc1ccc(CS(=O)(=O)NC(=O)C2(c3cccc(F)c3)CC2)cc1` .
## Result N

## Task Check if IC50 falls below 10 µM for `CC(C)(C(=O)NS(=O)(=O)Cc1ccc([N+](=O)[O-])cc1)c1ccccc1` .
## Result Y
